System: Human immunodeficiency virus 1
Assay: Antiviral activity against recombinant HIV-1 NL4-3 expressing HIV-1 HxBc2 envelope infected in U87.CD4.CXCR4 cells by HIV-1 single round infection assay
Type: functional, organism-based
Conditions: Human immunodeficiency virus 1, NL4-3, U87.CD4.CXCR4
RECORDED ENDPOINT: IC50 (nM)

(I) COc1cnc(-n2cnc(C)n2)c2[nH]cc(C(=O)NCC3CN(C(=O)c4ccccc4)C3)c12
(II) COc1cnc(-n2cnc(C)n2)c2[nH]cc(C(=O)C(=O)NC3C4CN(C(=O)c5ccccc5)CC43)c12 (stereo unspecified)
Query: Lab notebook, comparison: I versus II , higher IC50 goes to which? Could you answer with the label of the item you picked?
Reply: I
(I: 3800 nM, II: 69 nM)

(a) COc1cnc(-n2cnc(C)n2)c2[nH]cc(C(=O)C(=O)N3CC4C=NN(c5ccccc5)C4C3)c12 (stereo unspecified)
(b) COc1cnc(-n2cnc(C)n2)c2[nH]cc(C(=O)C(=O)N3CCC4(CCN(C(=O)c5ccccc5)CC4)C3)c12
(c) COc1cnc(-n2cnc(C)n2)c2[nH]cc(C(=O)C(=O)N3CC=C(CNC(=O)c4ccccc4)CC3)c12
(d) COc1cnc(-n2cnc(C)n2)c2[nH]cc(C(=O)C(=O)N3CC(CCC(=O)c4ccccc4)C3)c12
Query: Sort (4 molecules) by IC50: min first. Lab note: record answer as labels in requested order.
Reply: d, a, c, b

The measurements presented in this section are drawn from ChEMBL document CHEMBL3745657.
